Value source: PubChem BioAssay AID1963865

# Test system: KRAS PDC multicell spheroid viability;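 further: spheroids exposed to compounds for 7 days; 100% = DMSO vehicle control viability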
# methodSummary: Anticancer human tumor 825966-067-R-J1-PDC patient-derived colon carcinoma cell line growth inhibition [KRAS2]
# testSettings: second compound 0.1 µM; first compound 0.01 µM; active compounds read low
This section presents compounds with their documented viability, T/C values.

compound="CC(=O)OC12COC1CC(O)C1(C)C(=O)C(O)C3=C(C)C(OC(=O)C(O)C(NC(=O)OC(C)(C)C)c4ccccc4)CC(O)(C(OC(=O)c4ccccc4)C21)C3(C)C (stereo unspecified) + CC1OCC2(CCN(c3cnc(Sc4ccnc(N)c4Cl)c(N)n3)CC2)C1N" result=17.9%

Query string: Requested read-out viability, T/C, target or system KRAS PDC multicell spheroid viability, entry Cn1ncnc1[C@H]1c2n[nH]c(=O)c3cc(F)cc(c23)N[C@@H]1c1ccc(F)cc1 + CNCc1ccccc1-c1csc(C(C)Nc2nc(C)nc3cc(OC)c(OC)cc23)c1;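 further: spheroids exposed to compounds for 7 days; 100% = DMSO vehicle control viability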
Result string: 64.5%

Query string: Lab note: need viability, T/C with KRAS PDC multicell spheroid viability for entry CC(=O)OC12COC1CC(O)C1(C)C(=O)C(O)C3=C(C)C(OC(=O)C(O)C(NC(=O)OC(C)(C)C)c4ccccc4)CC(O)(C(OC(=O)c4ccccc4)C21)C3(C)C (stereo unspecified) + CNCc1ccccc1-c1csc(C(C)Nc2nc(C)nc3cc(OC)c(OC)cc23)c1 , please look it up.
Result string: 21.7%

Query string: What viability, T/C appears in the records for this compound with KRAS PDC multicell spheroid viability? CC(C)n1nc(-c2ccc3oc(N)nc3c2)c2c(N)ncnc21 + C=CC(=O)N1CCN(c2nc(=O)n(-c3c(C)ccnc3C(C)C)c3nc(-c4c(O)cccc4F)c(F)cc23)C(C)C1
Result string: 147%

Query string: Query viability, T/C on KRAS PDC multicell spheroid viability for CC(=O)Nc1cccc(-n2c(=O)n(C3CC3)c(=O)c3c(Nc4ccc(I)cc4F)n(C)c(=O)c(C)c32)c1 + CNCc1ccccc1-c1csc(C(C)Nc2nc(C)nc3cc(OC)c(OC)cc23)c1
Result string: 92.9%

Query string: For KRAS PDC multicell spheroid viability, provide viability, T/C of CN(C)C/C=C/C(=O)Nc1cc2c(Nc3ccc(F)c(Cl)c3)ncnc2cc1O[C@H]1CCOC1 + CC1OCC2(CCN(c3cnc(Sc4ccnc(N)c4Cl)c(N)n3)CC2)C1N please.
Result string: 120%

Query string: What viability, T/C appears in the records for this compound with KRAS PDC multicell spheroid viability? CC(=O)Nc1cccc(-n2c(=O)n(C3CC3)c(=O)c3c(Nc4ccc(I)cc4F)n(C)c(=O)c(C)c32)c1 + CC1OCC2(CCN(c3cnc(Sc4ccnc(N)c4Cl)c(N)n3)CC2)C1N
Result string: 93.5%

Query string: Lab note: need viability, T/C for Cn1ncnc1[C@H]1c2n[nH]c(=O)c3cc(F)cc(c23)N[C@@H]1c1ccc(F)cc1 + COc1cc2nc(C)nc(NC(C)c3cc(N)cc(C(F)(F)F)c3)c2cc1OC1CCOC1 on KRAS PDC multicell spheroid viability, anyone have it?
Result string: 76.7%

Query string: GET /values?readout=viability, T/C&system=KRAS PDC multicell spheroid viability&item= CC1COCCN1c1cc(-c2ccnn2C)c2ccnc(-c3ccn[nH]3)c2n1 (stereo unspecified) + CNCc1ccccc1-c1csc(C(C)Nc2nc(C)nc3cc(OC)c(OC)cc23)c1;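 further: spheroids exposed to compounds for 7 days; 100% = DMSO vehicle control viability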
Result string: 111%

Query string: What is its viability, T/C for KRAS PDC multicell spheroid viability? Entry: CN(C)C/C=C/C(=O)Nc1cc2c(Nc3ccc(F)c(Cl)c3)ncnc2cc1O[C@H]1CCOC1 + COc1cc2nc(C)nc(NC(C)c3cc(N)cc(C(F)(F)F)c3)c2cc1OC1CCOC1
Result string: 101%

Query string: Query for KRAS PDC multicell spheroid viability: what viability, T/C does the record show for CC1COCCN1c1cc(-c2ccnn2C)c2ccnc(-c3ccn[nH]3)c2n1 (stereo unspecified) + COc1cc2nc(C)nc(NC(C)c3cc(N)cc(C(F)(F)F)c3)c2cc1OC1CCOC1 ?
Result string: 106%
